These measurements were taken from paper PMC3663898.

test: in vivo; conditions: male, Sprague-Dawley, rat, po, 75 mg/kg

SMI: CC(C)(C)NC(=O)N(CCCCCCN1C[C@H](O)[C@@H](O)[C@H](O)[C@H]1CO)C1CCCCC1
Tmax / h: 2.1

* * *

test: in vivo; conditions: male, Sprague-Dawley, rat, im, 5 mg/kg
REPORTED_PROPERTY: Cmax (ng/mL)

SMI: CC(C)(C)NC(=O)N(CCCCCCN1C[C@H](O)[C@@H](O)[C@H](O)[C@H]1CO)C1CCCCC1
REPORTED_PROPERTY: Cmax
REPORTED_RESULT: 1230

* * *

experiment: in vivo; conditions: male, Sprague-Dawley, rat, iv, 5 mg/kg

COMPOUND: CC(C)(C)C(=O)N(CCCCCCN1C[C@H](O)[C@@H](O)[C@H](O)[C@H]1CO)C1CCCCC1 [IHVR17028]
Vd [L/kg]: 3
//
COMPOUND: CC(C)(C)NC(=O)N(CCCCCCN1C[C@H](O)[C@@H](O)[C@H](O)[C@H]1CO)C1CCCCC1 [IHVR19029]
Vd [L/kg]: 3
